target.desc: hCB1 receptor (Homo sapiens, UniProt P21554)
Construct: purchased Perkin Elmer; host or cells: HEK293-EBNA
Sequence (P21554 whole entry): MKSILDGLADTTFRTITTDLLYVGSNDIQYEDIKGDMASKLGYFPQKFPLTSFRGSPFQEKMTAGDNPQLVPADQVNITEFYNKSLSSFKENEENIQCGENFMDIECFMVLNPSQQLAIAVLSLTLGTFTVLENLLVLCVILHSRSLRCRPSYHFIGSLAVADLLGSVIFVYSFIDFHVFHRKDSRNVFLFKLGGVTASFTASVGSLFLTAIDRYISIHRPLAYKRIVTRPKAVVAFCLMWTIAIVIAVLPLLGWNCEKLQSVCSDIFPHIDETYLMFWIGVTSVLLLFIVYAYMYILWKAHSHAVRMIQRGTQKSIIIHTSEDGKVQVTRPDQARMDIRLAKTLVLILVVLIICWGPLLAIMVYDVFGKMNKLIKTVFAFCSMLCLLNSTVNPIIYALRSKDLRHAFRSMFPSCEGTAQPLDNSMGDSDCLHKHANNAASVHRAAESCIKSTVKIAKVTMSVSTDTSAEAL
test: competitive ligand binding assay with [3H]-CP-55,940 on hCB1 membrane preparations of HEK293-EBNA cells
Kindly supply the reported Ki values for the records listed here.
Field format: number, assumed nM, no unit text.

Documented Ki of CCCCCn1cc(C(=O)c2cccc3ccccc23)c2ccccc21 [JWH-018, reference compound] : 2.69

Documented Ki of COC(=O)[C@@H](NC(=O)c1cn(CC2CCCCC2)c2ccc(Cl)cc12)C(C)(C)C [5-Chloro-MDMB-CHMICA] : 9.81

Documented Ki of COC(=O)C(NC(=O)c1cn(CC2CCCCC2)c2ccccc12)C(C)(C)C (stereo not drawn) [MDMB-CHMICA] : 0.951
